This collection of values is drawn from patent US20260184768A1.

Molecular target: T1, PcrV (aa136-257).6xhis (Pseudomonas aeruginosa)
T1 chain: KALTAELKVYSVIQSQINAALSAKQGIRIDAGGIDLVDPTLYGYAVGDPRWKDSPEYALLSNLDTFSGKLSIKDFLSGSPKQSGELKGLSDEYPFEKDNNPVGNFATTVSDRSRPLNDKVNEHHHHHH
Experiment: SPR (Biacore T200), mAb captured via anti-human Fc, PcrV injected, 37 C
Classify by measured t½: MET if it is equal to or exceeds 2 h, NOT MET if it is smaller.

Check this binder for t½ at or above 2 h: H1H29329P (antibody, V domains shown) VH: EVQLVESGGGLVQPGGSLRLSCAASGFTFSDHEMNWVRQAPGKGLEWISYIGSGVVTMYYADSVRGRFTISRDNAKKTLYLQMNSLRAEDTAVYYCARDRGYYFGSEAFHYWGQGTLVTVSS VL: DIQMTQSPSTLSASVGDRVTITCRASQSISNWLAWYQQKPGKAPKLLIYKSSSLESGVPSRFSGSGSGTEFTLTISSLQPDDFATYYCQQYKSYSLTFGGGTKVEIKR
NOT MET

Here is the next binder: H1H29332P (antibody, V domains shown) VH: EVQLVESGGDLVQPGGSLRLSCKASGFTFSTFAMNWVRQAPGRGLEWVSAIGASGYSTYYVDSMKGRFTISRDNSKNTLYLQMNSLGAEDTAVYYCAKEYSVSSNYYYGMDVWGQGTTVTVSS VL: DIQMTQSPSSLSASVGDRVTITCRASQTIRRYLNWYQQKAGKAPKLLIYAASSLLSGVPSRFSASGSGTDFTLTISSLQPEDFSTYYCQQTYSIPITFGQGTRLEIKR
NOT MET

Here is the next binder: REGN3514 (antibody, V domains shown, also called Control I; Control I-REGN3514) VH: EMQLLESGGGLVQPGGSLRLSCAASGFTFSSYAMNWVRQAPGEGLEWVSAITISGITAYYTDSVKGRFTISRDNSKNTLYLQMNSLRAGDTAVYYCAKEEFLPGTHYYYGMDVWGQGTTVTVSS VL: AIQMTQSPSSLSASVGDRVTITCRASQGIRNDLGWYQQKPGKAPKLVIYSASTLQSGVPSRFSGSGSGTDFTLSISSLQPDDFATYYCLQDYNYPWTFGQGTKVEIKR
NOT MET

Here is the next binder: H1H29336P (antibody, V domains shown) VH: EVQLVESGGGLVQPGGSLRLSCAASGFTFSSYAMTWVRQAPGKGLEWVSSIRGSGYSSDYADSVKGRFTISRDNSENTVYLQMNRLRAEDTAVYYCAKERSVTAYYYYGMDVWGQGTTVTVSS VL: DIQLTQSPSFLSASVGDRVTITCWASQDISSFLTWYQQKPGIAPKLLIYTASTLQSGVPSRFSGSGSGTEFTLTISSLQPEDFATYYCQQLKSYPLTFGGGTKVEIKR
MET

Here is the next binder: H1H29339P (antibody, V domains shown) VH: EVQLVESGGDLVQPGGSLRLSCAASGFTFNTYAMNWVRQAPGKGLEWVAVIGGSGYSTNYADSVKGRFTISRDNSKNTLYLQMNSLRTEDTAVYYCAKEGNIVALYWYFDLWGRGTLVTVSS VL: DIQMTQSPSSLSASVGDRVTITCRASQSISRYLNWYQQKPGKAPKLLIYAASSLQGGVPSKFSGSGSGTDFTLTISSLQPEDFATYYCQQSSTTPLTFGGGTKVEIKR
MET

Here is the next binder: REGN3977 (antibody, V domains shown, also called Control III; REGN3977-Control III) VH: QVQLKQSGPGLVQPSQSLSITCTVSGFSLTSYGVHWVRQSPGKGLEWLGVIWSGGDTDYNAAFISRLSISKDNSKSQLFFKMNSLRATDTAIYYCARNRGDIYYDFTYAMDYWGQGTSVTVSS VL: DIQMTQSPASLSASVGETVTITCRASGNIQNYLAWYQQTQGKSPQLLVYSAKTLADGVPSRFSGSGSGTQYSLKINSLQPEDFGSYYCQHFWSTPYTFGGGTKLEIKR
NOT MET
